Selectivity, ratio of Ki (CB1R)/Ki (CB2R) values, listed per item
- targetUnderTest: hCB2R (Homo sapiens, UniProt P34972)
- Sequence (P34972 whole entry): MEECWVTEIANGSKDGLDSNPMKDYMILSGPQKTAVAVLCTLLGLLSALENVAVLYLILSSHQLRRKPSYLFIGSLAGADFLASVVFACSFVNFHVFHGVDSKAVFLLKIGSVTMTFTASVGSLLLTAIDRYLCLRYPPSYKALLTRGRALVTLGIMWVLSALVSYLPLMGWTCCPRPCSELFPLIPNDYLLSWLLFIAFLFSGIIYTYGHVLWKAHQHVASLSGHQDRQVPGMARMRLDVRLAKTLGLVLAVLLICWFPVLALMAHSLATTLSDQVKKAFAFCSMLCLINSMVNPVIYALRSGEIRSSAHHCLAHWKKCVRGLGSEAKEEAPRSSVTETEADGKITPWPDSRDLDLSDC
- methodDescription: [3H]CP55940 displacement assay, hCB2R CHO membranes
- Type: binding
- conditionDetails: hCB2R over hCB1R

Here are 4 molecules together with their reported answers.
# molecule, observedMeasurement
measured = [
    ("CCC(CC)(NC(=O)c1ccc(N2CC(OC)C2)c(OC[C@H]2C[C@@H]2CO)n1)C(=O)NCCOCCOCCNC(=O)OC(C)(C)C [Compound 11b]", ">94"),
    ("CCC(CC)(NC(=O)c1ccc(C2CC2)c(Cc2ccc(F)cc2)n1)C(=O)NCCOCCOCCOCCNC(=O)OC(C)(C)C [Compound 10c]", 12),
    ("CCC(CC)(NC(=O)c1ccc(C2CC2)c(Cc2ccc(F)cc2)n1)C(=O)NCCOCCNC(=O)OC(C)(C)C [Compound 10a]", 30),
    ("CCC(CC)(NC(=O)c1ccc(C2CC2)c(Cc2ccc(F)cc2)n1)C(=O)NCCOCCOCCOCCOCCNC(=O)OC(C)(C)C [Compound 10d]", 10),
]

### Prompt Please report Selectivity, ratio of Ki (CB1R)/Ki (CB2R) for the following molecule: CCC(CC)(NC(=O)c1ccc(N2CC(OC)C2)c(OC[C@H]2C[C@@H]2CO)n1)C(=O)NCCOCCNC(=O)OC(C)(C)C [Compound 11a]
### Response >4

### Prompt Give recorded Selectivity, ratio of Ki (CB1R)/Ki (CB2R). CCC(CC)(NC(=O)c1ccc(C2CC2)c(Cc2ccc(F)cc2)n1)C(=O)NCCOCCOCCNC(=O)OC(C)(C)C [Compound 10b]
### Response 78

----------
- targetUnderTest: hCB2R (Homo sapiens, UniProt P34972)
- methodDescription: HTRF cAMP assay in CHO cells stably expressing hCB2R
- Format: cell-based
- conditionDetails: CHO
quantityMeasured: Emax (%)
Quick note: give the figure in %, leave out the unit.

# compound, targetUnderTest, observedMeasurement
data = [
    ("CCC(CC)(NC(=O)c1ccc(C2CC2)c(Cc2ccc(F)cc2)n1)C(=O)NCCOCCOCCNC(=O)OC(C)(C)C [Compound 10b]", "hCB2R (Homo sapiens, UniProt P34972)", 83),
    ("CCC(CC)(NC(=O)c1ccc(C2CC2)c(Cc2ccc(F)cc2)n1)C(=O)NCCOCCOCCNC(=O)c1ccc2c(c1)C1(OC2=O)c2ccc(N(C)C)cc2[Si](C)(C)c2cc(N(C)C)ccc21 [Compound 13]", "hCB2R (Homo sapiens, UniProt P34972)", 127),
    ("CCC(CC)(NC(=O)c1ccc(N2CC(OC)C2)c(OC[C@H]2C[C@@H]2CO)n1)C(=O)NCCOCCOCCNC(=O)c1ccc2c(c1)C1(OC2=O)c2ccc(N(C)C)cc2[Si](C)(C)c2cc(N(C)C)ccc21 [Compound 17]", "hCB2R (Homo sapiens, UniProt P34972)", -29),
    ("CCC(CC)(NC(=O)c1ccc(C2CC2)c(Cc2ccc(F)cc2)n1)C(=O)NCCOCCOCCNC(=O)c1ccc2c(c1)C(=O)OC21c2ccc(N)c(S(=O)(=O)O)c2Oc2c1ccc(N)c2S(=O)(=O)O [Compound 14]", "hCB2R (Homo sapiens, UniProt P34972)", 79),
]

### Prompt Given CCC(CC)(NC(=O)c1ccc(N2CC(OC)C2)c(OC[C@H]2C[C@@H]2CO)n1)C(=O)NCCOCCOCCNC(=O)OC(C)(C)C [Compound 11b] , report its Emax on hCB2R (Homo sapiens, UniProt P34972).
### Response -63
